The values you see were collected from ChEMBL document CHEMBL5137069.

We begin with a simple list: items and their reported log10 half-life.
- MEASUREMENT_PROTOCOL: Stability in human liver microsomes assessed as half-life
- Assay type: ADME, Microsome
Scale: log10; quantity: half-life; unit before log: h

molecule="[O-][n+]1cc(-c2c(-n3cnnn3)ccc(Cl)c2F)ccc1C(CC1CC1)n1cc(-c2cncs2)cn1 (racemic)" test_result=-1.30

I would be grateful if you could share the reported log10 half-life for COCC[C@H](c1ccc(-c2c(-n3cnnn3)ccc(Cl)c2F)c[n+]1[O-])n1cc(-c2cnnn2C)cn1 .
0.45

I would be grateful if you could share the reported log10 half-life for Cc1nc(N)ccc1-c1cnn(C(CC2CC2)c2ccc(-c3c(-n4cnnn4)ccc(Cl)c3F)c[n+]2[O-])c1 (racemic) .
0.22

I would be grateful if you could share the reported log10 half-life for Cc1ncsc1-c1cnn(C(CC2CC2)c2ccc(-c3c(-n4cnnn4)ccc(Cl)c3F)c[n+]2[O-])c1 (racemic) .
-0.74

I would be grateful if you could share the reported log10 half-life for [O-][n+]1cc(-c2c(-n3cnnn3)ccc(Cl)c2F)ccc1C(CC1CC1)n1cc(-c2c(F)cncc2Cl)cn1 (racemic) .
-1.48

* * *

- MEASUREMENT_PROTOCOL: Equilibrium solubility of compound at pH 6.8 by HPLC analysis
- Format: physicochemical
- MEASUREMENT_CONDITIONS: buffer
MEASURE: solubility thermodynamic
In your response, put the unit directly after the numeric value.

I would be grateful if you could share the reported solubility thermodynamic for Cn1nncc1-c1cnn([C@H](CCOC(F)F)c2ccc(-c3c(-n4cc(Cl)nn4)ccc(Cl)c3F)c[n+]2[O-])c1 .
172 µM

* * *

- MEASUREMENT_PROTOCOL: Drug concentration in plasma of anesthetized New Zealand White rabbit model of AV shunt-induced thrombosis at 8.5 mg/kg, administered as iv bolus dose and subsequently followed by 10 mg/kg/hr as iv infusion from 20 min prior to 40 min after establishment of AV shunt by LC-MS/MS analysis
- Format: ADME, organism-based, Oryctolagus cuniculus
- MEASUREMENT_CONDITIONS: time 60 min
MEASURE: concentration at 1 h (µM)
Write it as a number; the unit µM goes unstated.

I would be grateful if you could share the reported concentration at 1 h for Cn1nncc1-c1cnn([C@H](CCOC(F)F)c2ccc(-c3c(-n4cc(Cl)nn4)ccc(Cl)c3F)c[n+]2[O-])c1 .
7.5

* * *

- MEASUREMENT_PROTOCOL: Stability in human liver microsomes assessed as half-life
- Format: ADME, Microsome
We begin with a simple list: items and their reported half-life.

Examples from the recorded data:
structure_string=Cn1nncc1-c1cnn([C@H](CCOC(F)F)c2ccc(-c3c(-n4cc(C(F)(F)F)nn4)ccc(Cl)c3F)c[n+]2[O-])c1 test_result="> 3.08 h"
structure_string=Cn1nncc1-c1cnn([C@H](CCOC(F)F)c2ccc(-c3c(-n4cnnn4)ccc(Cl)c3F)c[n+]2[O-])c1 test_result="> 3.08 h"

Here is the next item to consider.
I would be grateful if you could share the reported half-life for Cn1nncc1-c1cnn([C@H](CC2CC2)c2ccc(-c3c(-n4cnnn4)ccc(Cl)c3F)c[n+]2[O-])c1 .
> 3 h

* * *

We begin with a simple list: items and their reported half-life.
- MEASUREMENT_PROTOCOL: Stability in human liver microsomes assessed as half-life
- Assay type: ADME, Microsome

Examples from the recorded data:
molecule=Cn1nncc1-c1cnn([C@H](Cc2ccc(F)cc2)c2ccc(-c3c(-n4cnnn4)ccc(Cl)c3F)c[n+]2[O-])c1 test_result="> 3.08 h"
molecule=Cn1nncc1-c1cnn([C@H](CCOC(F)F)c2ccc(-c3c(-n4cc(Cl)nn4)ccc(Cl)c3F)c[n+]2[O-])c1 test_result="> 3.08 h"
molecule="Nc1ccc(-c2cnn(C(CC3CC3)c3ccc(-c4c(-n5cnnn5)ccc(Cl)c4F)c[n+]3[O-])c2)c(F)n1 (racemic)" test_result="> 3 h"
molecule=Cn1nncc1-c1cnn([C@H](Cc2ccn(C(F)F)n2)c2ccc(-c3c(-n4cc(C(F)(F)F)nn4)ccc(Cl)c3F)c[n+]2[O-])c1 test_result="> 3.08 h"

I would be grateful if you could share the reported half-life for Cn1nncc1-c1cnn([C@H](Cn2cc(F)cn2)c2ccc(-c3c(-n4cc(Cl)nn4)ccc(Cl)c3F)c[n+]2[O-])c1 .
> 3.08 h
